The values you see were collected from patent US20090275583A1.

- System: HIV-1NL4-3
- Run description: P4-MAGI assay
- Format: cell-based
- Assay context: Human immunodeficiency virus 1, 24 h, P4 cells, 24 hour incubation, β-galactosidase expression; read-out: P4-MAGI IC50
pIC50: −log10 of the molar value.
Short version: pIC50 at least 7 is condition met, less is condition not met.

See these solved cases before continuing.
C=C(C)[C@@H]1CC[C@]2(C(=O)NCc3cccc(-c4noc(Cc5ccc(C#N)cc5)n4)c3)CC[C@]3(C)C(CCC4[C@@]5(C)CC[C@H](O)C(C)(C)C5CC[C@]43C)C12 (stereo partly shown); condition not met
C=C(C)[C@@H]1CC[C@]2(C(=O)NCc3cccc(C(=O)NCCc4cccc(C(=O)O)c4F)c3)CC[C@]3(C)C(CCC4[C@@]5(C)CC[C@H](O)C(C)(C)C5CC[C@]43C)C12 (stereo partly shown); condition met
C=C(C)[C@@H]1CC[C@]2(C(=O)NCCc3cccc(C(=O)NCc4cccc(COCc5cccc(C(=O)O)c5)c4)c3)CC[C@]3(C)C(CCC4[C@@]5(C)CC[C@H](O)C(C)(C)C5CC[C@]43C)C12 (stereo partly shown); condition met
C=C(C)[C@@H]1CC[C@]2(C(=O)NCc3cccc(COCc4cccc(C(=O)O)c4)c3)CC[C@]3(C)C(CCC4[C@@]5(C)CC[C@H](O)C(C)(C)C5CC[C@]43C)C12 (stereo partly shown); condition not met

Query block: Does the compound C=C(C)[C@@H]1CC[C@]2(C(=O)NCc3cccc(C(=O)NCc4ccc(OCCCN(C)CCN(C)C)c(C(=O)OC)c4)c3)CC[C@]3(C)C(CCC4[C@@]5(C)CC[C@H](O)C(C)(C)C5CC[C@]43C)C12 (stereo partly shown) have recorded pIC50 that is 7 or more?
Result block: condition not met

Query block: Does the compound C=C(C)[C@@H]1CC[C@]2(C(=O)NCc3cccc(C(=O)NCCCCC(=O)O)c3)CC[C@]3(C)C(CCC4[C@@]5(C)CC[C@H](O)C(C)(C)C5CC[C@]43C)C12 (stereo partly shown) have recorded pIC50 that is 7 or more?
Result block: condition met

Query block: Does the compound C=C(C)[C@@H]1CC[C@]2(C(=O)NCCc3cccc(C(=O)NCc4ccc(OCCCn5cncc5C(=O)OC)cc4)c3)CC[C@]3(C)C(CCC4[C@@]5(C)CC[C@H](O)C(C)(C)C5CC[C@]43C)C12 (stereo partly shown) have recorded pIC50 that is 7 or more?
Result block: condition met

Query block: Does the compound C=C(C)[C@@H]1CC[C@]2(C(=O)NCCc3cccc(C(=O)NCc4cnc(C)cn4)c3)CC[C@]3(C)C(CCC4[C@@]5(C)CC[C@H](O)C(C)(C)C5CC[C@]43C)C12 (stereo partly shown) have recorded pIC50 that is 7 or more?
Result block: condition met

Query block: Does the compound C=C(C)[C@@H]1CC[C@]2(C(=O)NCc3cc(C(=O)NCCc4ccc(S(N)(=O)=O)cc4)ccc3F)CC[C@]3(C)C(CCC4[C@@]5(C)CC[C@H](O)C(C)(C)C5CC[C@]43C)C12 (stereo partly shown) have recorded pIC50 that is 7 or more?
Result block: condition not met

Query block: Does the compound C=C(C)[C@@H]1CC[C@]2(C(=O)NCCc3cccc(C(=O)NCc4cccc(C(=O)O)c4)c3)CC[C@]3(C)C(CCC4[C@@]5(C)CC[C@H](O)C(C)(C)C5CC[C@]43C)C12 (stereo partly shown) have recorded pIC50 that is 7 or more?
Result block: condition met

Query block: Does the compound C=C(C)[C@@H]1CC[C@]2(C(=O)NCCc3cccc(C(=O)NCC(=O)NC)c3)CC[C@]3(C)C(CCC4[C@@]5(C)CC[C@H](O)C(C)(C)C5CC[C@]43C)C12 (stereo partly shown) have recorded pIC50 that is 7 or more?
Result block: condition not met

Query block: Does the compound C=C(C)[C@@H]1CC[C@]2(C(=O)NCCc3cccc(C(=O)NCc4ccc(OCCCn5ccnc5)cc4)c3)CC[C@]3(C)C(CCC4[C@@]5(C)CC[C@H](O)C(C)(C)C5CC[C@]43C)C12 (stereo partly shown) have recorded pIC50 that is 7 or more?
Result block: condition met

Query block: Does the compound C=C(C)[C@@H]1CC[C@]2(C(=O)NCCc3cccc(C(=O)NCc4ccc(C(=O)N[C@@H](CCC(=O)O)C(=O)O)cc4)c3)CC[C@]3(C)C(CCC4[C@@]5(C)CC[C@H](O)C(C)(C)C5CC[C@]43C)C12 (stereo partly shown) have recorded pIC50 that is 7 or more?
Result block: condition met
